assay: chemical genetic growth profiling, strain panel (AID 1159580);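 also: tested at 20 µM; growth read once vehicle control cultures reached saturation at 30 °C; 1 = growth at the plate median or of vehicle wells; lower values mean less growth of the strain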; conditions: S. cerevisiae deletion strains, growth OD, locus YKL193C, strain SDS22, stronger effect = lower value
In all, about 5,500 compounds went through this assay and about 2,000 (36%) were called active. Roughly 18% stayed inconclusive and do not appear here. The list shows a part of the results.
attribute-measured: normalized growth
One number for each entry.

// known answers, use as guide
N#Cc1cccc(CSc2nc3ccc(C(F)(F)F)cc3[nH]2)c1 :: 0.973
COc1ccc(Nc2nc(NC(=O)Nc3ccc(Cl)cc3)n[nH]2)cc1 :: 0.991
CC1=CC(=O)N(c2ccc(F)c(Cl)c2)C1=O :: 0.974
CCOC(=O)c1sc(S(C)=NC(=O)Nc2ccc(Cl)cc2)c2c1CCC=C2 (stereo unspecified) :: 0.974
CC1=CC(=O)N(c2ccc(OC(F)(F)F)cc2)C1=O :: 0.863

Okay, next one:
What does the data say about its normalized growth? Entry: O=S(=O)(NCc1ccc(C(F)(F)F)cc1)c1cccc(C(F)(F)F)c1
0.983

* * *

assay: chemical genetic growth profiling, strain panel (AID 1159580);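 also: tested at 20 µM; growth read once vehicle control cultures reached saturation at 30 °C; 1 = growth at the plate median or of vehicle wells; lower values mean less growth of the strain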; settings: S. cerevisiae deletion strains, growth OD, locus YEL037C, strain rad23, stronger effect = lower value
The campaign covered roughly 5,500 compounds. About 2,000 (36%) were called active. Another 18% or so got no clear call; they are omitted. The list shows a part of the results.
Assignment: determine reported normalized growth for the given compounds.
One number for each entry.

// known answers, use as guide
COc1ccc2c(c1)OCC(Cc1ccc(O)c(OC)c1)C2=O (centres undefined) :: 0.97
Cc1oncc1C(=O)Nc1ccc(C(F)(F)F)cc1 :: 1.01
CC(=O)Oc1c2c(c3c(c1CC=C(C)C)O[C@]14C(=C[C@@H]5CC1C(C)(C)OC4(C/C=C(\C)C(=O)O)C5=O)C3=O)OC(C)(CCC=C(C)C)C=C2 (some centres undefined) :: 0.995

Okay, next one:
What does the data say about its normalized growth? Entry: COC(=O)/C(C)=C\CC12OC(C)(C)C3CC(C=C4C(=O)c5c(OC)c6c(c(CC=C(C)C)c5OC431)OC(C)(CCC=C(C)C)C=C6)C2=O (centres undefined)
1.01

* * *

test: chemical genetic growth profiling, strain panel (AID 1159580);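 also: tested at 20 µM; growth read once vehicle control cultures reached saturation at 30 °C; 1 = growth at the plate median or of vehicle wells; lower values mean less growth of the strain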; conditions: S. cerevisiae deletion strains, growth OD, locus YDR318W, strain mcm21, stronger effect = lower value
About 2,000 (36%) of roughly 5,500 compounds were called active. Inconclusive results (about 18%) are left out. The list shows a part of the results.
Sorting guide: entries reporting normalized growth beneath 1 go in the true (1) pile, the rest go in the false (0) pile.

O=NN(CCCl)C(=O)NCCCl :: true (1)

Lab note: next compound to report on.
Please let me know if CC(=O)O[C@H]1C[C@@]2(C)[C@@H](C[C@@H](O)C3[C@]2(C)CC[C@H]2[C@H](C)[C@H](O)CC[C@]32C)/C1=C(/CCC=C(C)C)C(=O)O (stereo not given in full) shows normalized growth below 1.
false (0)

* * *

test: chemical genetic growth profiling, strain panel (AID 1159580);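 also: tested at 20 µM; growth read once vehicle control cultures reached saturation at 30 °C; 1 = growth at the plate median or of vehicle wells; lower values mean less growth of the strain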; conditions: S. cerevisiae deletion strains, growth OD, locus YKR001C, strain vps1, stronger effect = lower value
In all, about 5,500 compounds went through this assay and about 2,000 (36%) were called active. Not shown: some 18% with an inconclusive outcome. Some of the results follow.
attribute-measured: normalized growth

CCC(C)C(=O)c1c(O)c(C)c2oc3c(C)c(O)c(C(=O)C(C)CC)c(O)c3c2c1O (centres undefined) :: 0.952 (inactive)
Cc1nnc(NS(=O)(=O)c2ccc(N)cc2)s1 :: 1.02 (inactive)
COC(=O)[C@@H]1OC(=O)C2OC23[C@@]1(C)CCC1[C@]2(C)C(C[C@@H](O)[C@]13C)C(C)(C)[C@H](OC(C)=O)C[C@@H]2OC(C)=O (some centres undefined) :: 1.01 (inactive)
COC(=O)[C@@H]1OC(=O)C2OC23[C@@]1(C)CCC1[C@@]2(C)CCC(=O)C(C)(C)C2C[C@@H](OC(C)=O)[C@]13C (some centres undefined) :: 1.06 (inactive)

State recorded normalized growth for all listed compounds.
1. CC(=O)OCC(=O)[C@@]1(O)CCC2C3CCC4=CC(=O)C=CC4(C)C3[C@@H](O)C[C@@]21C (some centres undefined)
2. NC1(C(=O)O)CCC1
3. NCC[C@@H](O)C(=O)N[C@@H]1C[C@H](N)[C@@H](O[C@H]2O[C@H](CN)[C@@H](O)[C@H](O)[C@H]2O)[C@H](O)[C@H]1O[C@H]1O[C@H](CO)[C@@H](O)[C@H](N)C1O (some centres undefined)
4. NC1(C(=O)O)CCCC1
5. CCCNC(=O)NS(=O)(=O)c1ccc(Cl)cc1

1.02 (inactive)
0.92 (inactive)
1.01 (inactive)
0.998 (inactive)
0.992 (inactive)

Numbers sourced from PubChem BioAssay AID1159580.
